B1: LINE1-full (parent)
chain: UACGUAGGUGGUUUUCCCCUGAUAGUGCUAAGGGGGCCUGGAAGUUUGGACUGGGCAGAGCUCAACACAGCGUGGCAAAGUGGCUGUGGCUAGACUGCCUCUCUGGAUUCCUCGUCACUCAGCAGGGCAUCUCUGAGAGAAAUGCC

- Variants of: B1
- ASSAY_NAME: self-cleavage, relative activity (ratio to wild type); higher = more cleavage; in vitro, sequencing; the parent is a self-cleaving ribozyme
RECORDED_METRIC: self-cleavage
Form rule: numeric answer, no unit written next to it.

Some solved cases for reference:
- U12C A69U: 0.09
- U20C U108C: 1.62
- A129C U134A: 1.59
- U13A U104A: 0.94
- G36A A78G: 1.32
- G55A A142G: 0.27
- U100A A140G: 0.76
- G27A A78G: 0.74
- A65G A117U: 0.04
- A2G A107G: 0.94

API: the following record is the query input.
Please give the measured self-cleavage for this variant: C37U U91C
0.27
